Target: T1, human PCSK9 (proprotein convertase subtilisin kexin type 9) (human, UniProt Q8NBP7 31-692)
T1 construct: Directly immobilized (SPR ProteOn), biotinylated (BLI), or in solution, depending on the assay; also called hPCSK9
T1 sequence (Q8NBP7 31-692 limits assumed): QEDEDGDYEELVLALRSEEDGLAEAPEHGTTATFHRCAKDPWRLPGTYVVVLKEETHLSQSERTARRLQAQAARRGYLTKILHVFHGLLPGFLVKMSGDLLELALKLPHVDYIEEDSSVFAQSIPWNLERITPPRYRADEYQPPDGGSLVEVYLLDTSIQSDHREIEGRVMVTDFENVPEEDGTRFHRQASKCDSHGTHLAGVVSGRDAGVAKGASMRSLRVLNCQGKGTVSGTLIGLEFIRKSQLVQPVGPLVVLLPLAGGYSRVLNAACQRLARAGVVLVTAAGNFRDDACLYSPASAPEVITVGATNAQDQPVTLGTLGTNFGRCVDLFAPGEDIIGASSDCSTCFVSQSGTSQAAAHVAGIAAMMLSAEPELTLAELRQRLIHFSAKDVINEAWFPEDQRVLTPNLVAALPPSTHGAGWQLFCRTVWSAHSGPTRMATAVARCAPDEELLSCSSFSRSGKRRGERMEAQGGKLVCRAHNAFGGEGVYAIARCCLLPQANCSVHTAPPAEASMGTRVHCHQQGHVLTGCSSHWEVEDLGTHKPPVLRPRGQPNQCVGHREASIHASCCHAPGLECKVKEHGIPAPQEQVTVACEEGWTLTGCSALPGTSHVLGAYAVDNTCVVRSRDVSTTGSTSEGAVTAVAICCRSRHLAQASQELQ
Assay: BLI, biotinylated hPCSK9 on sensor tips
What kon was measured for each of the following?
One number for each entry, in M⁻¹ s⁻¹.

Binder	Quantity kind	Endpoint value
2451H07 (designed binder, Anti-PCSK9 Adnectin, His6-tagged) MGITDVPRDLEVVAATPTSLLISWNPPDVNYGYYRITYGETGGNSPLQEFTVPVSKGTATISGLKPGVDYTITVYAVEYPYAHAGYYHRPISINYRTEIDKPSQHHHHHH	kon	448000
2382H09 (designed binder, Anti-PCSK9 Adnectin, His6-tagged) MGVSDVPRDLEVVAATPTSLLISWDAPAAAYGYYRITYGETGGNSPVQEFTVPSSKGTATISGLKPGVDYTITVYAVEFDFPGSGYYHRPISINYRTEIDKPSQHHHHHH	kon	251000
2971E02 (designed binder, Anti-PCSK9 Adnectin, His6-tagged) MGVSDVPRDLEVVAATPTSLLISWDAPSDDYGYYRITYGETGGNSPVQEFTVPIGKGTATISGLKPGVDYTITVYAVEFPWPHAGYYHRPISINYRTEIDKPSQHHHHHH	kon	355000

# ---- query binder ----
State its kon: ATI001174 (designed binder, PEGylated on the cysteine of the C-terminal EIEKPCQ tail, PEGylated, non-His-tagged cysteine mutant of 2013E01; also called ATI-1174; ATI1174) MGVSDVPRDLEVVAATPTSLLISWVPPSDDYGYYRITYGETGGNSPVQEFTVPIGKGTATISGLKPGVDYTITVYAVEFPWPHAGYYHRPISINYRTEIEKPCQ
126000
